# target: Androgen Receptor (Homo sapiens)
# Construct: endogenous in cells; host or cells: VCaP cells
# Sequence (P10275 1-920): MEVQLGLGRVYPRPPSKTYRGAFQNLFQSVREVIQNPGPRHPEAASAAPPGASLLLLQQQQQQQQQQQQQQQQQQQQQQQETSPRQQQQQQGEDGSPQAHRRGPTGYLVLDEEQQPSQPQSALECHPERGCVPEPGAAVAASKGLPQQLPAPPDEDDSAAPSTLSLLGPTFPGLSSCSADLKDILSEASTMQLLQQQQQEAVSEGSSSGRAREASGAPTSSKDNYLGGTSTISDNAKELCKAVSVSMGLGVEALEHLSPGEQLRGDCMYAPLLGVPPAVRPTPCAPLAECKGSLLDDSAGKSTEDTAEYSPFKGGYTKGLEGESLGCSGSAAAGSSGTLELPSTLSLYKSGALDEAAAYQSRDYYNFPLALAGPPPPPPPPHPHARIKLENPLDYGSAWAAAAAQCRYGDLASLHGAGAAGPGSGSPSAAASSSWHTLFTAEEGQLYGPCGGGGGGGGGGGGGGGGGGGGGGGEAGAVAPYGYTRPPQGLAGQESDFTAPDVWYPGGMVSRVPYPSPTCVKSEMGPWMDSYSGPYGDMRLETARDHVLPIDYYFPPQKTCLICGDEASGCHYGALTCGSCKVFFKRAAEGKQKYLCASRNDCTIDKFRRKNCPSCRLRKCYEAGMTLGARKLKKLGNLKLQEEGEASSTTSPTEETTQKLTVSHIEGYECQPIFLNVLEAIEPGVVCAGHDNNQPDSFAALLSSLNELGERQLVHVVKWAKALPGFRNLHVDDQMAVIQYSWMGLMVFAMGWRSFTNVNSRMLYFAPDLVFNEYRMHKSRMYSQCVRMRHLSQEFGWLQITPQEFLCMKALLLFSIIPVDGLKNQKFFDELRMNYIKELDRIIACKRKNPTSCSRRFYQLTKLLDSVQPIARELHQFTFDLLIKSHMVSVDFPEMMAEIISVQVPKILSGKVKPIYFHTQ
# assay summary: Androgen Receptor ELISA assay (PathScan AR ELISA) in VCaP cells: AR degradation, Dmax and DC50
# Type: cell-based
# conditions used: read-out: VCaP DC50; VCaP cells; Table 36
Let's look at some molecules and their measured DC50.

Cc1ncsc1-c1ccc(CNC(=O)[C@@H]2C[C@@H](O)CN2C(=O)C(C(C)C)n2cc(Oc3cccc(OCCCCCOc4ccc(N5C(=S)N(c6ccc(C#N)c(C(F)(F)F)c6)C(=O)C5(C)C)cc4)c3)cn2)cc1 (stereo in doubt)	> 0.501 µM

Request: Entry Cc1ncsc1-c1ccc([C@H](C)NC(=O)[C@@H]2C[C@@H](O)CN2C(=O)[C@@H](NC(=O)CN2CCO[C@@H](CN3CCO[C@@H](COc4ccc(N5C(=S)N(c6ccc(C#N)c(C(F)(F)F)c6)C(=O)C5(C)C)cc4)C3)C2)C(C)(C)C)cc1 has what DC50?
Response: > 0.501 µM

* * *

# target: Androgen Receptor (Homo sapiens)
# Construct: endogenous in cells; host or cells: VCaP cells
# assay summary: Androgen Receptor ELISA assay (PathScan AR ELISA) in VCaP cells: AR degradation, Dmax and DC50
# Type: cell-based
# conditions used: VCaP, VCaP cells; Table 35; read-out: VCaP Dmax (%)
# Dmax listing for each entry below

Consider the reported Dmax for these compounds:
CC(C)(C)[C@H](NC(=O)COCCNc1ccc(-c2ccc(C(=O)N[C@H]3C(C)(C)[C@H](Oc4ccc(C#N)c(Cl)c4)C3(C)C)cc2)cc1)C(=O)N1C[C@H](O)C[C@H]1C(=O)NCc1ccc(C#N)cc1 [Example 524]	51 to 70%
CC(C)(C)[C@H](NC(=O)COCCCCCNc1ccc(C(=O)N[C@H]2C(C)(C)[C@H](Oc3ccc(C#N)c(Cl)c3)C2(C)C)cc1)C(=O)N1C[C@H](O)C[C@H]1C(=O)NCc1ccc(-n2cncn2)cc1 [Example 530]	> 71%
C[C@H](NC(=O)[C@@H]1C[C@@H](O)CN1C(=O)[C@@H](NC(=O)COCCOc1ccc(-c2ccc(C(=O)N[C@H]3C(C)(C)[C@H](Oc4ccc(C#N)c(Cl)c4)C3(C)C)cc2)cc1)C(C)(C)C)c1ccc(C#N)cc1 [Example 549]	> 71%

Request: What Dmax value was documented for this compound, CC(C)(C)[C@H](NC(=O)COCCCCCNc1ccc(C(=O)N[C@H]2C(C)(C)[C@H](Oc3ccc(C#N)c(Cl)c3)C2(C)C)cc1)C(=O)N1C[C@H](O)C[C@H]1C(=O)NCc1ccc(-c2ncns2)cc1 [Example 504] ?
Response: 51 to 70%

Request: Report Dmax for Cc1ncsc1-c1ccc([C@H](CN(C)C)NC(=O)[C@@H]2C[C@@H](O)CN2C(=O)[C@@H](NC(=O)COCCCCCOc2ccc(C(=O)N[C@H]3C(C)(C)[C@H](Oc4ccc(C#N)c(Cl)c4)C3(C)C)cc2)C(C)(C)C)cc1 [Example 470] please.
Response: > 71%

Request: Given CC(C)(C)[C@H](NC(=O)COCCCCCNc1ccc(C(=O)N[C@H]2C(C)(C)[C@H](Oc3ccc(C#N)c(Cl)c3)C2(C)C)cc1)C(=O)N1C[C@H](O)C[C@H]1C(=O)NCc1ccc(C#N)nc1 [Example 523] , state its recorded Dmax.
Response: 51 to 70%

Request: Which value of Dmax has been reported for C[C@H](NC(=O)[C@@H]1C[C@@H](O)CN1C(=O)[C@@H](NC(=O)COCCCCCNc1ccc(C(=O)N[C@H]2C(C)(C)[C@H](Oc3ccc(C#N)c(Cl)c3)C2(C)C)cc1)C(C)(C)C)c1ccc(C#N)cc1 [Example 541] in the records?
Response: > 71%

Request: GET /values?readout=Dmax&item= CC(C)(C)[C@H](NC(=O)COCCNc1ccc(-c2ccc(C(=O)N[C@H]3C(C)(C)[C@H](Oc4ccc(C#N)c(Cl)c4)C3(C)C)cc2)cn1)C(=O)N1C[C@H](O)C[C@H]1C(=O)NCc1ccc(C#N)cc1 [Example 540]
Response: > 71%

Request: Requested field: Dmax. Item: Cc1ncsc1-c1ccc([C@@H](CN(C)C)NC(=O)[C@@H]2C[C@@H](O)CN2C(=O)[C@@H](NC(=O)COCCCCCOc2ccc(C(=O)N[C@H]3C(C)(C)[C@H](Oc4ccc(C#N)c(Cl)c4)C3(C)C)cc2)C(C)(C)C)cc1 [Example 471]
Response: 26 to 50%

Request: Given the compound Cc1ncsc1-c1ccc([C@@H](CN2CCCC2)NC(=O)[C@@H]2C[C@@H](O)CN2C(=O)[C@@H](NC(=O)COCCCCCOc2ccc(C(=O)N[C@H]3C(C)(C)[C@H](Oc4ccc(C#N)c(Cl)c4)C3(C)C)cc2)C(C)(C)C)cc1 [Example 466] , what is its reported Dmax?
Response: > 71%

Request: What measured Dmax goes with Cc1ncsc1-c1ccc([C@H](C)NC(=O)[C@@H]2C[C@@H](O)CN2C(=O)[C@@H](NC(=O)COCC2CCN(c3ccc(C(=O)N[C@H]4C(C)(C)[C@H](Oc5ccc(C#N)c(Cl)c5)C4(C)C)cc3)CC2)C(C)(C)C)cc1 [Example 447] ?
Response: > 71%

Request: What Dmax value was documented for this compound, Cc1ncsc1-c1ccc([C@H](C)NC(=O)[C@@H]2C[C@@H](O)CN2C(=O)[C@@H](NC(=O)c2cc3ccc(OC4CN(c5ncc(C(=O)N[C@H]6C(C)(C)[C@H](Oc7ccc(C#N)c(Cl)c7)C6(C)C)cn5)C4)cc3o2)C(C)(C)C)cc1 [Example 422] ?
Response: > 71%

Request: So what does the record say about Dmax for CC(C)(C)[C@H](NC(=O)COCCCCCNc1ccc(C(=O)N[C@H]2C(C)(C)[C@H](Oc3ccc(C#N)c(Cl)c3)C2(C)C)cc1)C(=O)N1C[C@H](O)C[C@H]1C(=O)NCc1ccc(-n2ccccc2=O)cc1 [Example 529] ?
Response: < 25%

Request: State the recorded Dmax for this entry: CC(C)(C)[C@H](NC(=O)COCCCCCNc1ccc(C(=O)N[C@H]2C(C)(C)[C@H](Oc3ccc(C#N)c(Cl)c3)C2(C)C)cc1)C(=O)N1C[C@H](O)C[C@H]1C(=O)NCc1ccc(C(=O)O)cc1 [Example 512]
Response: 51 to 70%

Request: // lookup Dmax for CC(C)(C)[C@H](NC(=O)CNCCCCCNc1ccc(C(=O)N[C@H]2C(C)(C)[C@H](Oc3ccc(C#N)c(Cl)c3)C2(C)C)cc1)C(=O)N1C[C@H](O)C[C@H]1C(=O)NCc1ccc(C#N)cc1 [Example 480]
Response: 26 to 50%

Request: What value of Dmax has been reported for the following compound? CNC(=O)[C@@H]1C[C@@H](O)CN1C(=O)[C@@H](NC(=O)COCCCCCOc1ccc(C(=O)N[C@H]2C(C)(C)[C@H](Oc3ccc(C#N)c(Cl)c3)C2(C)C)cc1)C(C)(C)C [Example 507]
Response: 26 to 50%

Request: For the compound shown here, Cc1ncsc1-c1ccc([C@H](C)NC(=O)[C@@H]2C[C@@H](O)CN2C(=O)[C@@H](NC(=O)COCCCCCNc2ccc(C(=O)N[C@H]3C(C)(C)[C@H](Oc4ccc(C#N)c(Cl)c4)C3(C)C)nc2)C(C)(C)C)cc1 [Example 482] , give the reported Dmax.
Response: 51 to 70%
